protocol: Cytotoxicity against human HepA2 cells after 2 days by MTT assay
Format: cell-based
measured.endpoint: CC50 at 48 h

1. COc1ccc(-c2c(COC(C)=O)c(COC(C)=O)cc3ccc4c(c23)OCO4)cc1OC :: > 12.5 µM
2. CCCCCC(=O)OCc1cc2ccc3c(c2c(-c2ccc(O)c(O)c2)c1COC(=O)CCCCC)OCO3 :: > 12.5 µM
3. CCCCCC(=O)OCc1cc2ccc3c(c2c(-c2ccc(OC)c(OC(=O)CCCCC)c2)c1COC(=O)CCCCC)OCO3 :: > 12.5 µM
4. COc1ccc(-c2c(COC(C)=O)c(COC(C)=O)cc3ccc4c(c23)OCO4)cc1OC(C)=O :: > 12.5 µM
5. O=C1c2cc3ccc4c(c3c(-c3ccc5c(c3)OCO5)c2CN1CCO)OCO4 :: > 12.5 µM
6. OCc1cc2ccc3c(c2c(-c2ccc(O)c(O)c2)c1CO)OCO3 :: > 12.5 µM
7. COc1ccc(-c2c(CO)c(CO)cc3ccc4c(c23)OCO4)cc1OC :: > 12.5 µM
8. CCCCCCCCOC(=O)CN1Cc2c(cc3ccc4c(c3c2-c2ccc3c(c2)OCO3)OCO4)C1=O :: > 12.5 µM
9. O=C(O)CN1Cc2c(cc3ccc4c(c3c2-c2ccc3c(c2)OCO3)OCO4)C1=O :: > 12.5 µM
